Origin of measurements: paper PMC10914731

Experiment: in vitro
Conditions: human, Caco-2, Caco-2 permeability P (A-B)
*1 amine or outer side, *2 acyl side, *3 side chain or, on linkers, in order; H or OH if unused. Where a SMILES comes first, the peptide text is derived from it. [ ]: non-standard residue; d: D form. Trp(1-(1,1-Me2-allyl)) = C=CC(C)(C)n1cc(C[C@H](N)C(=O)O)c2ccccc21; Ala(3R-Me,3-isobutenyl) = CC(C)=C[C@@H](C)[C@H](N)C(=O)O; X3 = C#CCOc1ccc([C@@H](OC)[C@H](N[*:1])C(=O)[*:2])cc1; NMeLeu(5-OH,4R) = CN[C@@H](C[C@@H](C)CO)C(=O)O; Phe(βR-OMe) = CO[C@H](c1ccccc1)[C@H](N)C(=O)O; Trp(1-Me) = Cn1cc(C[C@H](N)C(=O)O)c2ccccc21; NMeL = CN[C@@H](CC(C)C)C(=O)O

Compound	Unit Info	Reported Relation	Papp A→B
CO[C@H](c1ccccc1)[C@@H]1NC(=O)[C@H](C)NC(=O)[C@H](C[C@@H](C)CO)N(C)C(=O)[C@H](Cc2cn(Cc3cn(CCOCCOCCOCCOCCn4cc(Cn5cc(C[C@H]6C(=O)N(C)[C@@H](C[C@@H](C)CO)C(=O)N[C@@H](C)C(=O)N[C@@H]([C@H](OC)c7ccccc7)C(=O)N[C@@H](C(C)C)C(=O)N(C)[C@@H](CC(C)C)C(=O)N[C@@H](C(C)C)C(=O)N6C)c6ccccc65)nn4)nn3)c3ccccc23)N(C)C(=O)[C@H](C(C)C)NC(=O)[C@H](CC(C)C)N(C)C(=O)[C@H](C(C)C)NC1=O [Compound 27]	×10⁻⁶ cm/s	<	6.4
C#CCOc1ccc([C@@H](OC)[C@@H]2NC(=O)[C@H](C)NC(=O)[C@H](C[C@@H](C)CO)N(C)C(=O)[C@H](Cc3cn(C)c4ccccc34)NC(=O)[C@H](C(C)C)NC(=O)[C@H](CC(C)C)N(C)C(=O)[C@H](C(C)C)NC2=O)cc1 [SI-38] (cyclo(A[X3]V[NMeL]V[Trp(1-Me)][NMeLeu(5-OH,4R)]))	×10⁻⁶ cm/s	<	0.2
CO[C@H](c1ccccc1)[C@@H]1NC(=O)[C@H](C)NC(=O)[C@H](C[C@@H](C)CO)N(C)C(=O)[C@H](Cc2cn(C)c3ccccc23)NC(=O)[C@H](Cc2cn(CCOCCOCCn3cc(C[C@@H]4NC(=O)[C@H](CC(C)C)N(C)C(=O)[C@H](C(C)C)NC(=O)[C@H]([C@H](OC)c5ccccc5)NC(=O)[C@H](C)NC(=O)[C@H](C[C@@H](C)CO)N(C)C(=O)[C@H](Cc5cn(C)c6ccccc56)NC4=O)nn3)nn2)NC(=O)[C@H](CC(C)C)N(C)C(=O)[C@H](C(C)C)NC1=O [Compound 11]	×10⁻⁶ cm/s	=	1.6
CO[C@H](c1ccccc1)[C@@H]1NC(=O)[C@H](C)NC(=O)[C@H](C[C@@H](C)CO)N(C)C(=O)[C@H](Cc2cn(Cc3cn(CCCCCn4cc(Cn5cc(C[C@@H]6NC(=O)[C@H](C(C)C)NC(=O)[C@H](CC(C)C)N(C)C(=O)[C@H](C(C)C)NC(=O)[C@H]([C@H](OC)c7ccccc7)NC(=O)[C@H](C)NC(=O)[C@H](C[C@@H](C)CO)N(C)C6=O)c6ccccc65)nn4)nn3)c3ccccc23)NC(=O)[C@H](C(C)C)NC(=O)[C@H](CC(C)C)N(C)C(=O)[C@H](C(C)C)NC1=O [Compound 9]	×10⁻⁶ cm/s	<	0.2
C=CC(C)(C)n1cc(C[C@@H]2NC(=O)[C@H]([C@H](C)C=C(C)C)NC(=O)[C@H](CC(C)C)N(C)C(=O)[C@H](C(C)C)NC(=O)[C@H]([C@H](OC)c3ccccc3)NC(=O)[C@H](C)NC(=O)[C@H](C[C@@H](C)CO)N(C)C2=O)c2ccccc21 [dCymC] (cyclo([Trp(1-(1,1-Me2-allyl))][NMeLeu(5-OH,4R)]A[Phe(βR-OMe)]V[NMeL][Ala(3R-Me,3-isobutenyl)]))	×10⁻⁶ cm/s	=	1.3
